Source listed as ChEMBL document CHEMBL5236635.

Test system: CYP1A2 versus CYP1B1
Assay Name: Selectivity index, ratio of IC50 for inhibition of recombinant human CYP1A2 to IC50 for inhibition of recombinant human CYP1B1
Measurement Conditions: recombinant human CYP1A2 and recombinant human CYP1B1
Experimental Endpoint: selectivity ratio
Answers are plain numbers.

selectivity ratio lookup needed for c1cc(-c2csc(-c3csc(Nc4ccc(N5CCOCC5)cc4)n3)n2)ccn1 , thanks.
2.04

selectivity ratio lookup needed for Fc1cc(Cl)ccc1-c1csc(-c2csc(Nc3ccc(N4CCOCC4)cc3)n2)n1 , thanks.
1.86

selectivity ratio lookup needed for Clc1cc(Cl)cc(Nc2nc(-c3nc(-c4ccccn4)cs3)cs2)c1 , thanks.
120

Please find the next compound below.
selectivity ratio lookup needed for c1csc(-c2csc(Nc3ccc4c(c3)OCO4)n2)n1 , thanks.
8.71
